# Lookup of reported Kd keyed by entry
# TARGET DESC: T1, human MCP-2 (human, UniProt P80075 24-99)
# T1 construct: also called hMCP-2; huMCP-2
# T1 sequence (looked up): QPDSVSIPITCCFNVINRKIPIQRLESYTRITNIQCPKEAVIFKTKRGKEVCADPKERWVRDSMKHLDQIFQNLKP
# PROCEDURE SUMMARY: KinExA, in solution, Fab
Use nM as the unit, but write only the number.

Fab fragment of humanized 11K2 H2L1 (Fab, V domains shown) VH: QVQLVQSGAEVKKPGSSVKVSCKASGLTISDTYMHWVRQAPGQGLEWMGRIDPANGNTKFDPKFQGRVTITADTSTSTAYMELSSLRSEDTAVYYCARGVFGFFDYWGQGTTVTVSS VL: DIQMTQSPSSLSASVGDRVTITCKATEDIYNRLAWYQQKPGKAPKLLISGATSLETGVPSRFSGSGSGKDYTLTISSLQPEDFATYYCQQFWSAPYTFGGGTKVEIKR
0.94
Fab fragment of murine 11K2 (Fab, V domains shown, also called 11K2 Fab; mu11K2 Fab) VH: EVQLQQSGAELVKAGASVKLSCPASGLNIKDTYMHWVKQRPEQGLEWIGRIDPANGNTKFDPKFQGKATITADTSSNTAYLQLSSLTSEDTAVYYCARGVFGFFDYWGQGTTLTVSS VL: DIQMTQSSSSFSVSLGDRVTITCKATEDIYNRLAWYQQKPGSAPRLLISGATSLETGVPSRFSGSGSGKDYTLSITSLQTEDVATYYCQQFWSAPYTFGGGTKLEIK
0.43

Kindly consider the entry below.
Fab fragment of chimeric 11K2 (Fab, V domains shown, also called Ch11K2) VH: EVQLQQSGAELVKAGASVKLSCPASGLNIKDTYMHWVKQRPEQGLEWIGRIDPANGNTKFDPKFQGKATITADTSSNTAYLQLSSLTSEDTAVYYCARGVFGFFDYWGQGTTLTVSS VL: DIQMTQSSSSFSVSLGDRVTITCKATEDIYNRLAWYQQKPGSAPRLLISGATSLETGVPSRFSGSGSGKDYTLSITSLQTEDVATYYCQQFWSAPYTFGGGTKLEIKR yielded Kd of 0.226
